Assayed System: T1, anti-CD28 scFv (VH - linker 1 - VL) (biotinylated (site not stated))
T1 construct: Captured as biotinylated scFv on neutravidin coated plates in the clonal phage ELISA
T1 sequence (scFv, as listed by the source): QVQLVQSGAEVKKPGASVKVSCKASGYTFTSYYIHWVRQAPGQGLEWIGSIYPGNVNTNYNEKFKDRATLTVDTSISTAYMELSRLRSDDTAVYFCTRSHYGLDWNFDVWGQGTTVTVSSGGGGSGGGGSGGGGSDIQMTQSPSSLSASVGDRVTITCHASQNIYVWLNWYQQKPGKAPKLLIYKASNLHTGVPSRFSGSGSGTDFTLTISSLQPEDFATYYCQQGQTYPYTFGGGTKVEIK
Protocol Text: clonal phage ELISA; biotinylated anti-CD28 scFv on neutravidin plate, anti-M13-HRP detection;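 note: crude supernatants of phage clones were tested in wells pretreated with blocking buffer either alone or supplemented with soluble CD28 protein before phage addition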
Labelling: CD28 scFv signal reported below 2 becomes yes; at or above becomes no.

# Binder, Class
measured = [
    ("MDWCPRNMWAQCFA (tested as crude clonal phage supernatant) [Phage-199]", "no"),
    ("MDWCPRAMWDKCFF (tested as crude clonal phage supernatant) [Phage-212]", "yes"),
    ("MDWCPTDMWHHCFL (tested as crude clonal phage supernatant) [Phage-205]", "no"),
    ("MDWCPRHMWNVCFS (tested as crude clonal phage supernatant) [Phage-204]", "no"),
    ("MDWCPTDMWIVCFA (tested as crude clonal phage supernatant) [Phage-208]", "yes"),
    ("MFWCPMDMWDQCFN (tested as crude clonal phage supernatant) [Phage-202]", "no"),
    ("TFGCPTTMWNRCFA (tested as crude clonal phage supernatant) [Phage-218]", "yes"),
    ("MDWCPRAMWNHCFN (tested as crude clonal phage supernatant) [Phage-198]", "no"),
    ("MDWCPRDMWFECFA (tested as crude clonal phage supernatant) [Phage-210]", "yes"),
    ("MFWCPFDMWHFCFN (tested as crude clonal phage supernatant) [Phage-200]", "no"),
    ("MDWCPTYMWSECFN (tested as crude clonal phage supernatant) [Phage-214]", "yes"),
    ("MDWCPMNMWYQCFN (tested as crude clonal phage supernatant) [Phage-216]", "yes"),
    ("IHWCPINMWDKCYN (tested as crude clonal phage supernatant) [Phage-206]", "no"),
    ("NYWCPSSMWNRCLH (tested as crude clonal phage supernatant) [Phage-219]", "yes"),
]

Value source: patent US20260242478A1
